# Test system: GH3-TRE-Luc cell line
# conditions used: read-out: AC50 (uM) modified / 1000; Tox21_110001=Tox21_200750; viability, 1 nM T3 present, 24 h
measured parameter: CC50 (µM)
Give the value, in units of µM, as a plain number.

Any idea what CC50 was measured for CCCCCCCCCCCCCC[P+](CCCCCC)(CCCCCC)CCCCCC ?
5.33

---

# Tested on: GH3-TRE-Luc cell line
# conditions used: read-out: AC50 (uM) modified / 1000; Tox21_110001=Tox21_201158; viability, 1 nM T3 present, 24 h
measured parameter: CC50 (µM)
Give the value, in units of µM, as a plain number.

Any idea what CC50 was measured for C[C@@H]1C[C@@H]([C@H](O)CC2CC(=O)NC(=O)C2)C(=O)[C@@H](C)C1 [Cycloheximide] ?
0.0922

---

# CC50 at 24 h annotations
# experiment notes: in vitro
# conditions used: rat, gh3-tre-luc cells, AC50 (uM) modified / 1000

Any idea what CC50 at 24 h was measured for Nc1n[nH]c(N)n1 [Guanazole] ?
> 90 µM

Note, next up: O=c1n(CC2CO2)c(=O)n(CC2CO2)c(=O)n1CC1CO1 (centres unmarked) [Triglycidyl isocyanurate]
27.2 µM

Note, next up: C=CCCCCCCCCC=O [Undec-10-enal]
> 90 µM

Note, next up: CCN(Cc1cccc(S(=O)(=O)O)c1)c1ccccc1
> 90 µM

Note, next up: CC(CCc1ccccc1)NC(C)C(O)c1ccc(O)cc1 (centres unmarked) [Nylidrin]
41.8 µM

Note, next up: C=C(C)[C@@H]1CCC2=CC(=O)C[C@@H](C)[C@]2(C)C1 [Nootkatone]
> 90 µM

Continuing:
Any idea what CC50 at 24 h was measured for CC(C)(C)C1CCC(O)CC1 (centres unmarked) [4-tert-Butylcyclohexanol] ?
> 90 µM

Note, next up: COc1cc(C)ccc1C(C)C
> 90 µM

Note, next up: CCN(C(=O)N(CC)c1ccccc1)c1ccccc1 [N,N'-Diethylcarbanilide]
> 90 µM

Note, next up: CCCC=O [Butyraldehyde]
> 90 µM

Note, next up: COC(=O)c1ccc(C(=O)OC)c(C(=O)OC)c1 [Trimethyl benzene-1,2,4-tricarboxylate]
> 90 µM

---

# experiment notes: in vitro
# conditions used: rat, gh3-tre-luc cells, AC50 (uM) modified / 1000, Tox21_110001=Tox21_200071; viability, 1 nM T3 present, 24 h
measured parameter: CC50 at 24 h (µM)
Give the value, in units of µM, as a plain number.

Any idea what CC50 at 24 h was measured for C[C@]12C/C(=C/O)C(=O)C[C@@H]1CC[C@@H]1[C@@H]2CC[C@@]2(C)[C@H]1CC[C@]2(C)O [Oxymetholone] ?
67.3

---

# CC50 at 24 h annotations
# experiment notes: in vitro
# conditions used: rat, gh3-tre-luc cells, AC50 (uM) modified / 1000
Counter-ions that a name gives are not always drawn.

Any idea what CC50 at 24 h was measured for CCCCCCCCCCCC(=O)OCC [Ethyl dodecanoate] ?
> 90 µM

Note, next up: CO/N=C(\C(=O)N[C@@H]1C(=O)N2C(C(=O)[O-])=C(C[n+]3ccn4ncccc43)CS[C@H]12)c1nsc(N)n1 [Cefozopran hydrochloride]
> 50 µM

Note, next up: CCCCCCCCCCCCCCCC(=O)OC/C=C(C)/C=C/C=C(C)/C=C/C1=C(C)CCCC1(C)C [Retinol palmitate]
> 50 µM

Note, next up: Oc1ccc2c(c1)OCO2
> 90 µM

Note, next up: Cc1ccc(OP(=O)(Oc2ccc(C)cc2C)Oc2ccc(C)cc2C)c(C)c1
> 100 µM

Note, next up: CC/C=C\CC/C=C/CO [trans-2,cis-6-Nonadien-1-ol]
> 90 µM

Continuing:
Any idea what CC50 at 24 h was measured for CCCCCCCCCCC(=O)O ?
> 90 µM

Note, next up: CN1C(C)(C)CCCC1(C)C
> 50 µM

Note, next up: Nc1nc(Cl)nc2c1ncn2[C@@H]1O[C@H](CO)[C@@H](O)[C@@H]1F
0.263 µM

---

# experiment notes: in vitro
# conditions used: rat, gh3-tre-luc cells, AC50 (uM) modified / 1000
Counter-ions that a name gives are not always drawn.
measured parameter: CC50 at 24 h

Illustrative cases are given below, each with its answer.
Any idea what CC50 at 24 h was measured for C=C(C)C(=O)OCCC(C)OC(=O)C(=C)C (centres unmarked) [1,3-Butyleneglycol dimethacrylate] ?
> 90 µM

Note, next up: CCCCNC(=N)NC(=N)N
> 50 µM

Note, next up: CN1CCCC1=O
> 90 µM

Note, next up: CCOc1cc(N)c(Cl)cc1C(=O)NCC1CN(Cc2ccc(F)cc2)CCO1 (centres unmarked) [Mosapride citrate]
> 50 µM

Lab note: next compound to report on.
Any idea what CC50 at 24 h was measured for CC(=C(CCOC(=O)C(C)C)SSC(CCOC(=O)C(C)C)=C(C)N(C=O)Cc1cnc(C)nc1N)N(C=O)Cc1cnc(C)nc1N (stereo in doubt) ?
> 50 µM

---

# experiment notes: in vitro
# conditions used: rat, gh3-tre-luc cells, AC50 (uM) modified / 1000, Tox21_110001=Tox21_112882; viability, 1 nM T3 present, 24 h
measured parameter: CC50 at 24 h

Any idea what CC50 at 24 h was measured for c1ccc(CN2CCNCC2)cc1 [1-Benzylpiperazine difumarate] ?
> 200 µM

---

# System: GH3-TRE-Luc cell line
# conditions used: read-out: AC50 (uM) modified / 1000; Tox21_110001=Tox21_110003; viability, 1 nM T3 present, 24 h
measured parameter: CC50
Write the numeric value and follow it with the unit.

Any idea what CC50 was measured for C[C@]12CC[C@@H]3c4ccc(O)cc4CC[C@H]3[C@@H]1CC[C@@H]2OC(=O)CCC1CCCC1 [Estradiol cypionate] ?
32.5 µM

---

# experiment notes: in vitro
# conditions used: rat, gh3-tre-luc cells, AC50 (uM) modified / 1000, Tox21_110001=Tox21_200790; viability, 1 nM T3 present, 24 h
measured parameter: CC50 at 24 h

Any idea what CC50 at 24 h was measured for ClCBr ?
> 100 µM

---

# CC50 at 24 h annotations
# experiment notes: in vitro
# conditions used: rat, gh3-tre-luc cells, AC50 (uM) modified / 1000
Structures can show the parent of a compound that is named as a salt.

Illustrative cases are given below, each with its answer.
Any idea what CC50 at 24 h was measured for COC(C=C(C)CCC=C(C)C)OC [1,1-Dimethoxy-3,7-dimethylocta-2,6-diene] ?
> 90 µM

Note, next up: O=C(O)CCC(=O)O [Butanedioic acid]
> 90 µM

Note, next up: CCCCC(CC)COC(=O)c1ccc(O)cc1 (stereo not drawn) [2-Ethylhexylparaben]
32.1 µM

Note, next up: CCCCCCCCOc1ccc(C(=O)c2ccccc2)c(O)c1 [Octabenzone]
> 90 µM

Note, next up: Nc1c2c(nc3ccccc13)CCCC2O (stereo not drawn) [Hydroxytacrine maleate]
> 50 µM

Continuing:
Any idea what CC50 at 24 h was measured for C=CC(=O)OCCCCCCCCCC [Decyl prop-2-enoate] ?
> 90 µM

---

# experiment notes: in vitro
# conditions used: rat, gh3-tre-luc cells, AC50 (uM) modified / 1000, Tox21_110001=Tox21_201089; viability, 1 nM T3 present, 24 h
measured parameter: CC50 at 24 h

Any idea what CC50 at 24 h was measured for ClCc1ccccc1Cl [2-Chlorobenzyl chloride] ?
> 90 µM

---

# experiment notes: in vitro
# conditions used: rat, gh3-tre-luc cells, AC50 (uM) modified / 1000, Tox21_110001=Tox21_112877; viability, 1 nM T3 present, 24 h
measured parameter: CC50 at 24 h (µM)
Give the value, in units of µM, as a plain number.

Any idea what CC50 at 24 h was measured for CC(C)=CCN1CC[C@@]2(C)c3cc(O)ccc3C[C@@H]1[C@@H]2C [(-)-Pentazocine succinate] ?
34.4

---

# experiment notes: in vitro
# conditions used: rat, gh3-tre-luc cells, AC50 (uM) modified / 1000, Tox21_110001=Tox21_201934; viability, 1 nM T3 present, 24 h
measured parameter: CC50 at 24 h

Any idea what CC50 at 24 h was measured for CCCCSP(=O)(SCCCC)SCCCC ?
> 90 µM

---

# Tested on: GH3-TRE-Luc cell line
# experiment notes: GH3-TRE-Via cell viability, CellTiter-Fluor (TOX21_TR_LUC_GH3_Antagonist_viability, aeid 805)
# conditions used: hit call from tcpl
measured parameter: TR_LUC_GH3_Antagonist_viability hitc
I'd appreciate a reply containing only the number, no unit.

Illustrative cases are given below, each with its answer.
Any idea what TR_LUC_GH3_Antagonist_viability hitc was measured for Cc1ccc(O)cc1 ?
0

Note, next up: CC(C)(c1ccccc1)c1ccc(O)c(C(C)(C)c2ccccc2)c1
1

Note, next up: CN(C)c1ccc(N=O)cc1
1

Lab note: next compound to report on.
Any idea what TR_LUC_GH3_Antagonist_viability hitc was measured for CC(C)(C)CC(C)(C)c1ccc(O)c(Cc2ccc(Cl)cc2Cl)c1 [Clofoctol, reference compound] ?
1
